Origin of the recorded values: ChEMBL document CHEMBL1961873

# target desc: Tyrosine-protein kinase ABL1 (Homo sapiens);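 note: reported values are mean percent inhibition of ABL1 kinase activity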
# test context: at 1 µM
Where inhibition equals or exceeds 30%, the correct label is TRUE; where it does not, the label is FALSE.

Data request: Determine whether this molecule has inhibition no lower than 30%: `CS(=O)(=O)CCNCc1cc(-c2cc3c(Nc4ccc(OCc5cccc(F)c5)c(Cl)c4)ncnc3s2)cs1`
Data returned: FALSE

Data request: Determine whether this molecule has inhibition no lower than 30%: `c1ccc(-c2n[nH]cc2-c2ccnc(-c3ccc(OCCN4CCOCC4)cc3)c2)nc1`
Data returned: TRUE

Data request: Determine whether this molecule has inhibition no lower than 30%: `COc1cc(Nc2ncc3c(C)nc(-c4cccc(Oc5ccccc5)c4)n3n2)cc(OC)c1OC`
Data returned: FALSE

Data request: Determine whether this molecule has inhibition no lower than 30%: `Cc1nnc(-c2ccc(C)c(-c3ccc(C(=O)NCc4ccc(Cl)cc4)cc3)c2)o1`
Data returned: FALSE

Data request: Determine whether this molecule has inhibition no lower than 30%: `COc1cccc(/C=N/Nc2ncnc3c2cnn3-c2cccc(OC)c2)c1`
Data returned: FALSE

Data request: Determine whether this molecule has inhibition no lower than 30%: `O=C(Nc1n[nH]c2nc(-c3ccc(O)cc3)c(Br)cc12)C1CC1`
Data returned: TRUE

Data request: Determine whether this molecule has inhibition no lower than 30%: `COc1cc2ncn(-c3cc(OCc4cccs4)c(C(N)=O)s3)c2cc1OC`
Data returned: TRUE

Data request: Determine whether this molecule has inhibition no lower than 30%: `COC(=O)Nc1nc2ccc(Sc3ccc(NC(=O)Nc4cc(C(F)(F)F)ccc4F)cc3)cc2[nH]1`
Data returned: TRUE

Data request: Determine whether this molecule has inhibition no lower than 30%: `COc1cc(Nc2ncc(-c3ccccc3)o2)cc(OC)c1OC`
Data returned: TRUE

Data request: Determine whether this molecule has inhibition no lower than 30%: Nc1nccc(-c2c(-c3ccc(F)cc3)ncn2C2CCC(O)CC2)n1 (stereo not given)
Data returned: TRUE

* * *

# target desc: Proto-oncogene tyrosine-protein kinase ROS (Homo sapiens) (UniProt P08922)
# Sequence (P08922 whole entry): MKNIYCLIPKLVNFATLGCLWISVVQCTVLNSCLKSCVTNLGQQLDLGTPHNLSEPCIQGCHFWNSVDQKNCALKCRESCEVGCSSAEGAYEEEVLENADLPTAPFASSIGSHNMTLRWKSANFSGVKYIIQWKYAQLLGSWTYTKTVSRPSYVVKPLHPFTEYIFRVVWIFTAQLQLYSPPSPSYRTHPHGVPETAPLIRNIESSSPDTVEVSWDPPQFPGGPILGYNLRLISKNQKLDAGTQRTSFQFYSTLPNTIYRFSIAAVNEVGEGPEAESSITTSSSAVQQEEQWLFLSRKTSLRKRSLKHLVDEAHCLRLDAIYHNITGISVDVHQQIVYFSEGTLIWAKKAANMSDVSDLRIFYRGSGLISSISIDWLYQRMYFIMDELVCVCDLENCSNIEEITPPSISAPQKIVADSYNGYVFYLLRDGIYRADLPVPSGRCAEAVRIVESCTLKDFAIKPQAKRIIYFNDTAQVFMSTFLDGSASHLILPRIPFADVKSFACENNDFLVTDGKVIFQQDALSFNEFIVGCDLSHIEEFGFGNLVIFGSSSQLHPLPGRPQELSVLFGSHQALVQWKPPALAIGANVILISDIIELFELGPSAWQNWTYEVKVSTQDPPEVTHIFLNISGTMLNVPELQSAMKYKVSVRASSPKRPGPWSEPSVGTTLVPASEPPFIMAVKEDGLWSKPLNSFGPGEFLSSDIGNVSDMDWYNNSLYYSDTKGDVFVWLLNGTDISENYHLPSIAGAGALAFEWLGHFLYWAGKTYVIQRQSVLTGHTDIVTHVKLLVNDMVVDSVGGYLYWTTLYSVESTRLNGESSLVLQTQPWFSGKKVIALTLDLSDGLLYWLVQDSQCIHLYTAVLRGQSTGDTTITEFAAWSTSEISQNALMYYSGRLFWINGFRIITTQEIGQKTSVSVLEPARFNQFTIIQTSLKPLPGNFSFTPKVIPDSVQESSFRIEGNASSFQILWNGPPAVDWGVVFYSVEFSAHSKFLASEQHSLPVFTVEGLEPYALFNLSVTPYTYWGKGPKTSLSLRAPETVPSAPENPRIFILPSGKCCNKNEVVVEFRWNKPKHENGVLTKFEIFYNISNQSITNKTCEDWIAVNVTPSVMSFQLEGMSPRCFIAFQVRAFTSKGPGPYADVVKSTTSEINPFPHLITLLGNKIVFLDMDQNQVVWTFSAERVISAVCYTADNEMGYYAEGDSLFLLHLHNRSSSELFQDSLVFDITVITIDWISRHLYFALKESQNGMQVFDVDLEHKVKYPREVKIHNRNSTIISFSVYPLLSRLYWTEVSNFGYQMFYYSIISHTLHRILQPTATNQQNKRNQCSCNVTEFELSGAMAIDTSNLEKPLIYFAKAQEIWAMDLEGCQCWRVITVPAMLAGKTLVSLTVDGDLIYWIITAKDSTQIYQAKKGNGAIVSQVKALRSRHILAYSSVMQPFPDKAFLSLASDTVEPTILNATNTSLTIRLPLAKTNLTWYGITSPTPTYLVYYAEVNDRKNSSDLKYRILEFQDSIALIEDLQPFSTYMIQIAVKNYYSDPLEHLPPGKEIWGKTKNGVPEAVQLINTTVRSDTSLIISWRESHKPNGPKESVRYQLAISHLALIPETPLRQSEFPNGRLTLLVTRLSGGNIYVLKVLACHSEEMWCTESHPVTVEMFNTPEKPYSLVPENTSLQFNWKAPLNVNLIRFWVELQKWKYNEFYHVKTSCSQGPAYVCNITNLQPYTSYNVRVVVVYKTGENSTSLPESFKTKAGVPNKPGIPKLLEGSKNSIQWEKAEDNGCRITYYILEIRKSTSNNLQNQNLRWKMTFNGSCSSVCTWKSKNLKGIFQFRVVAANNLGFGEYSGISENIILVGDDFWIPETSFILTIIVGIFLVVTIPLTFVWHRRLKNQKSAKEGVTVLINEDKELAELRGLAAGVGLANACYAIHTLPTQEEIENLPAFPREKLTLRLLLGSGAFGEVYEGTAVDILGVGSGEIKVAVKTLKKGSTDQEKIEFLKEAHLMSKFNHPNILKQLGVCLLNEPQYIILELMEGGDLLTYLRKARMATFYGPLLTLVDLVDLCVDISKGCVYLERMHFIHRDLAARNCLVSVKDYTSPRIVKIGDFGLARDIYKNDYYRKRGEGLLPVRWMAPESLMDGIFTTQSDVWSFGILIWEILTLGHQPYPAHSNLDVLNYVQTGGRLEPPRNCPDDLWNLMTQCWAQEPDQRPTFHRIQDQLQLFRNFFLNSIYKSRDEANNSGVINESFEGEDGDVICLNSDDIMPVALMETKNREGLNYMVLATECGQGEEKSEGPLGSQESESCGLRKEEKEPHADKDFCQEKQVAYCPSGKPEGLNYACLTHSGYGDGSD
# test context: at 0.1 µM
# Description: GSK_PKIS: ROS mean inhibition at 0.1 uM [Nanosyn]
Kindly supply the reported inhibition values for the records listed here.
Answer in %, number only, no unit symbol.

Data request: Field request: inhibition | item: `COc1ccc2cc(-c3c(-c4ccncc4)nc(-c4ccc(S(C)(=O)=O)cc4C)n3C)ccc2c1`
Data returned: 6.07

Data request: Field request: inhibition | item: `O=C(Nc1n[nH]c2cc(-c3ccccc3)ccc12)C1CC1`
Data returned: 6.26

Data request: Field request: inhibition | item: `COC(=O)Nc1nc2ccc(Sc3ccc(NC(=O)Nc4cc(C(F)(F)F)ccc4F)cc3)cc2[nH]1`
Data returned: -2.6

Data request: Field request: inhibition | item: `COc1cc(C)c(N(C)C(=O)CN(C)C)cc1Nc1nc(Nc2cccc(F)c2C(N)=O)c2cc[nH]c2n1`
Data returned: 15.3

Data request: Field request: inhibition | item: `Cc1ccc(C(=O)NC(C)C)cc1-c1ccc(C(=O)NCC2CC2)cc1`
Data returned: -1.39

Data request: Field request: inhibition | item: `NS(=O)(=O)c1ccc(N/N=C2\C(=O)Nc3ccc(-c4cnco4)cc32)cc1`
Data returned: 6.83

Data request: Field request: inhibition | item: `Fc1ccc(-c2ncn(C3CCNCC3)c2-c2ccnc(Oc3ccc(Oc4ccccc4)cc3)n2)cc1`
Data returned: 12.1

Data request: Field request: inhibition | item: `COc1cccc(-n2cnc3c(N/N=C/c4ccncc4)ncnc32)c1`
Data returned: -1.03

Data request: Field request: inhibition | item: `FC(F)(F)c1cccc(Nc2nccc(-c3cnn4nc(-c5ccccc5)ccc34)n2)c1`
Data returned: 0.97

Data request: Field request: inhibition | item: `C#Cc1cccc(Nc2ncnc3ccc(OCCCCNCCS(C)(=O)=O)cc23)c1`
Data returned: 3.71

Data request: Field request: inhibition | item: `c1ccc(Oc2ccc(Nc3ncc(-c4ccccc4)o3)cc2)cc1`
Data returned: 4.48

Data request: Field request: inhibition | item: `CN(c1ccc(NC(=O)Nc2c(Cl)cccc2Cl)cc1)c1ccnc(Nc2cccc(CS(C)(=O)=O)c2)n1`
Data returned: 14.8

Data request: Field request: inhibition | item: `CCN(CC)Cc1ccc(Nc2nccc(-c3cnn4ncccc34)n2)cc1`
Data returned: 34.5

Data request: Field request: inhibition | item: `Fc1ccc(-c2nc3n(c2-c2ccncc2)CCS3)cc1`
Data returned: 7.49

Data request: Field request: inhibition | item: `CN(C)CCOc1ccc(-c2cc(-c3ccc4c(c3)CCC4=NO)c(-c3ccncc3)o2)cc1`
Data returned: -1.28

Data request: Field request: inhibition | item: `Fc1ccc(-c2ncn(CCCN3CCOCC3)c2-c2ccncc2)cc1`
Data returned: 2.12

Data request: Field request: inhibition | item: `O=C(NCC1CC1)c1ccc(-c2cccc(C(=O)NC3CC3)c2)cc1`
Data returned: 3.69

Data request: Field request: inhibition | item: `CCc1ccc(Oc2nccc(-c3c(-c4ccc(F)cc4)ncn3C3CCNCC3)n2)cc1`
Data returned: 6.34

Data request: Field request: inhibition | item: `NS(=O)(=O)c1ccc(N/N=C2\C(=O)Nc3ccc(C(=O)NCCCn4ccnc4)cc32)cc1`
Data returned: 9.73

Data request: Field request: inhibition | item: `O=C(Nc1n[nH]c2nc(-c3ccc(O)cc3)c(Br)cc12)C1CC1`
Data returned: 5.89

Data request: Field request: inhibition | item: `NC(=O)c1ccc(Oc2nccc(-c3c(-c4ccc(F)cc4)ncn3C3CCNCC3)n2)cc1`
Data returned: 9.43

Data request: Field request: inhibition | item: `CN1CCN(CCCNc2nc3ccc(Oc4ccc(NC(=O)Nc5cc(C(F)(F)F)ccc5F)cc4)cc3[nH]2)CC1`
Data returned: 5.6

Data request: Field request: inhibition | item: `COc1cccc(/C=N/Nc2ncnc3c2cnn3-c2cccc(OC)c2)c1`
Data returned: 5.15

Data request: Field request: inhibition | item: `CS(=O)(=O)CCNCc1ccc(-c2ccc3ncnc(Nc4ccc(OCc5ccccc5)c(Br)c4)c3c2)o1`
Data returned: 4.46

Data request: Field request: inhibition | item: `NC(=O)c1cc(-c2ccncc2)cc(-c2ccccc2)c1N`
Data returned: 5.79

Data request: Field request: inhibition | item: `CCc1nccc2c1nc(-c1nonc1N)n2CC`
Data returned: 3.74

Data request: Field request: inhibition | item: `Fc1ccc(-c2ncn(C3CCNCC3)c2-c2ccnc(Oc3ccc4c(c3)OCO4)n2)cc1`
Data returned: 4.93

Data request: Field request: inhibition | item: COc1ccc2cc(-c3c(-c4ccncc4)nc(-c4ccc([S+](C)[O-])cc4C)n3C)ccc2c1 (stereo not given)
Data returned: 2.09

Data request: Field request: inhibition | item: `C[C@@H](Oc1cc(-n2cnc3ccc(OCC4CCN(C)CC4)cc32)sc1C(N)=O)c1ccccc1Cl`
Data returned: 10.2

Data request: Field request: inhibition | item: `CNC(=O)c1cncc(/C=C/c2c(C)cccc2C)c1`
Data returned: -2.1

Data request: Field request: inhibition | item: `NCc1ccc(-n2c(-c3nonc3N)nc3cnccc32)cc1`
Data returned: 15.3

Data request: Field request: inhibition | item: `CS(=O)(=O)CCNCc1cc(-c2cc3c(Nc4ccc(OCc5cccc(F)c5)c(Cl)c4)ncnc3s2)cs1`
Data returned: 6.34

Data request: Field request: inhibition | item: `COc1cc(Nc2ncc3c(C)nc(-c4cccc(Oc5ccccc5)c4)n3n2)cc(OC)c1OC`
Data returned: 13.1

Data request: Field request: inhibition | item: `Cc1ccc(NC(=O)c2ccoc2)cc1-c1ccc(C(=O)NCC2CC2)cc1`
Data returned: 0.21

Data request: Field request: inhibition | item: `COc1cc(Nc2ncc3c(C)nc(-c4cccc(C(F)(F)F)c4)n3n2)cc(OC)c1OC`
Data returned: 6.64

Data request: Field request: inhibition | item: `Clc1ccc(CNc2nccc(-c3cnn4ncccc34)n2)cc1`
Data returned: 0.86

Data request: Field request: inhibition | item: `CCS(=O)(=O)c1ccc(OC)c(Nc2ncc(-c3cccc(-c4ccccc4F)c3)o2)c1`
Data returned: 14.2

Data request: Field request: inhibition | item: `O=C1Nc2ccc(I)cc2C1=Cc1cc(Br)c(O)c(Br)c1`
Data returned: 6.23

Data request: Field request: inhibition | item: `COc1cc2ncn(-c3cc(OCCc4ccccc4)c(C(N)=O)s3)c2cc1OC`
Data returned: 3.89

Data request: Field request: inhibition | item: `Cc1nnc(-c2ccc(C)c(-c3ccc(C(=O)NCc4ccc(Cl)cc4)cc3)c2)o1`
Data returned: 4.75
